# Tested on: MS2 coat protein
# TEST_DETAILS: apparent Kd, MS2 coat protein; higher = weaker binding; RNA-MaP array
# CONDITION_LABEL: designed as: ON switch for flavin mononucleotide; no ligand
Reported apparent Kd maps to class as: I: < 20 nM; II: ≥ 20 nM and < 90 nM; III: ≥ 90 nM

Worked examples follow.
[
  {
    "BIOSEQUENCE": "ACCUAGAGAUAGAAGGUUUAUAUGACCCUACAUGAGGAUCACCCAUGUUGUGGUAUUAUUCGUGAAAAGGAUAUAUCCCGUGAC",
    "GROUP": "I"
  },
  {
    "BIOSEQUENCE": "GCCCAUUAAGACAUGAGGAUCACCCAUGUCACCGGGUAUGCCAGAAGGCUCUUAUAGAAGUAACGAGAGGAUAUGGGUGCUACU",
    "GROUP": "II"
  },
  {
    "BIOSEQUENCE": "ACCGGACAUGAGGAUCACCCAUGUCUUGCAUAGGUAGGAUAUGAAUCAAGGACUUGAUCAUCAGAAGGACCCAGGC",
    "GROUP": "I"
  },
  {
    "BIOSEQUENCE": "CCGUGGCAUCAACAGGAUAUGCUAUCAAAGACAUGAGGAUCACCCAUGUGGGUAUAUUACUUCCGGCAGAAGGGUUUAAGGGUUAC",
    "GROUP": "II"
  },
  {
    "BIOSEQUENCE": "GAAAAUUCCUAGAAGGCGGAUUAUACUUGGUUGAACAUGAGGAUCACCCAUGUAUCUGGCAAACCCGAGGAUAUAGAUUUUCCA",
    "GROUP": "II"
  }
]

# bin label for UGAAUGCACCAGAAGGCUGGAAGAGUAUUUAACAGAGGAUAUGGAACAUAAAGAUCACAUGAGGAUCACCCAUGUACACAUAAC
II

# bin label for UAUAGGACUUAAGGAUAUGGCACCGGUGUCCCGCCAGAAGGUAAGGACCACACAUGAGGAUCACCCAUGUUCUCGAGAAUGGGA
III

# bin label for UGUUUACAUGAGGAUCACCCAUGUGUUAUCGUAUUAGGAUAUGCAUGACGAUGAUUUUCGGCAGAAGGAAUGCGCA
III

# bin label for UAACAUGAGGAUCACCCAUGUACGAAGAGGGAAAGAAAAGUCAAGGAUAUGCGGAUUUAACUAGCGCAGAAGGUGAUCUAAGUU
III

# bin label for AUAAAACGAGUGCAGGAUAUUCCGUCGCGCACAUGAGGAUCACCCAUGUCAAUUGGGCAUCGUACGAAGAAGGGCAAAUACCAGCG
III

# bin label for CACCGGAAUGGAGGAUAUCCUACACAUGAGGAUCACCCAUGUUAUUUAUAGCUAUUAAAAGUUCGGGAGAAGGCCAAGCGAUUC
II

* * *

# Test system: MS2 coat protein
# TEST_DETAILS: apparent Kd, MS2 coat protein; higher = weaker binding; RNA-MaP array; FMN 200 µM where present
# CONDITION_LABEL: ligand present: flavin mononucleotide; designed as: ON switch for flavin mononucleotide
Reported apparent Kd maps to class as: bin 0 (below 10 nM), bin 1 (10 nM to below 50 nM), bin 2 (50 nM or more)

Worked examples follow.
[
  {
    "BIOSEQUENCE": "GUUGAAGUCACAGGAUAUACGUCGUCUGUUGCCGUAGAAGGGUGAACUCAGCCUGACCGUGACAUGAGGAUCACCCAUGUGACC",
    "GROUP": "bin 1"
  },
  {
    "BIOSEQUENCE": "UGGUACUAGGGAGGAUAUGGGAAGAUACAUGAGGAUCACCCAUGUUUAAGAAUGCCGAGAGGCAACUAGAAGGCCCUAGUAGCU",
    "GROUP": "bin 1"
  },
  {
    "BIOSEQUENCE": "GGACAUUUACAGAAGGGCAAGCUCGAAAGCGGAGAACGCGAACGAGCUUGCAGGAUAUGUUGAACAUGAGGAUCACCCAUGUCU",
    "GROUP": "bin 0"
  },
  {
    "BIOSEQUENCE": "AAUUAUAUGUAGAAGGUACUAACAUAUGUGUUGUAAGGAUAUACCAAAUUAUUAGUUAUCAAGUUACAUGAGGAUCACCCAUGU",
    "GROUP": "bin 0"
  },
  {
    "BIOSEQUENCE": "ACAUGAGGAUCUCCCAUGUAAAAUUAGGAUAUAUAACUGCACAUGAGGAUCACCCAUGUUUUACCGUAGAAGGGAUAAAUAAUU",
    "GROUP": "bin 2"
  }
]

# bin label for UGGUACUAGGGAGGAUAUGGGAAGAUACAUGAGGAUCACCCAUGUUUCAGAAUGCCGAGAGGCAACUAGAAGGCCCUAGUACCU
bin 0

# bin label for ACAAAUCCUGACAUGAGGAUCACCCAUGUUAGAUUGUUAUGUCAGGAUAUUAUCUGGCAACCAGAUGAGAAGGGACGAUUUGUG
bin 2

# bin label for UUUUUAUAAUAGAAGGAGGACUUCAUGAGGAUCACCCAUGUGUUAGUACUUAGGAUAUGUAAUAACAUGAGGAUCACCCAUGUC
bin 1

# bin label for GUAGCAUUGAGAGGAUAUCCAUACCGGAAACGGACAUGAGGAUCACCCAUGUGGCGAAAGCCAUGGGAGAAGGCUCUAUGUUAC
bin 0

* * *

# Test system: MS2 coat protein
# TEST_DETAILS: apparent Kd, MS2 coat protein; higher = weaker binding; RNA-MaP array; FMN 200 µM where present
# CONDITION_LABEL: ligand present: flavin mononucleotide; designed as: OFF switch for flavin mononucleotide
MEASURED_QUANTITY: apparent Kd (nM)
The reply should be a number in nM, with the unit left off.

Illustrative cases are given below, each with its answer.
[
  {
    "BIOSEQUENCE": "GUCAGCUCUUGAGGAUAUACAACACUGCUUCGGCAGUGUAUUAAGAUCACAUGAGGAUCACCCAUGUAGAAGGCACGAGCUGAU",
    "UNIT_OF_MEASUREMENT": "nM",
    "apparent Kd": 170
  },
  {
    "BIOSEQUENCE": "UUUUUGUGAGGAUAUUAGUAGUAAAAAAAUAAAAUUACUACUGAGAAGGCACAUGAGGAUCACCCAUGUUCCUC",
    "UNIT_OF_MEASUREMENT": "nM",
    "apparent Kd": 174
  },
  {
    "BIOSEQUENCE": "CGAUAUAUGAAGGGCGAACGCGCACAUGAGGAUCACCCAUGUAGAAGGCGAUCCGCAACGCGGAUCGAGGAUAUAUAGUAUACA",
    "UNIT_OF_MEASUREMENT": "nM",
    "apparent Kd": 33.8
  },
  {
    "BIOSEQUENCE": "AAUAAACAUGAGGAUCACCCAUGUAAGGAUAUGCGAACAAUAAGAAGACAAUAAUAAAGCAGAAGGUACAAGAG",
    "UNIT_OF_MEASUREMENT": "nM",
    "apparent Kd": 96.2
  },
  {
    "BIOSEQUENCE": "GAGAUGUGAGGAUAUCUGGACCGUGGAAGAGCCACGGUCCGAGAGAAGGCACAUGAGGAUCACCCAUGUGAUGA",
    "UNIT_OF_MEASUREMENT": "nM",
    "apparent Kd": 171
  },
  {
    "BIOSEQUENCE": "GGUGCAAUGUAGAAGGCAGAUCUGAUUCAGAUCUGAGGAUAUACAUGAGGAUCACCCAUGUUAUGCACCAGCACGAGAGUGCAA",
    "UNIT_OF_MEASUREMENT": "nM",
    "apparent Kd": 12.6
  }
]

# next sequence below
Given item AAUAAAUAGGAGGAUAUCGUAUCGGAAACGAUACGAGAAGGUCUAACAUGAGGAUCACCCAUGUUCCUCAAUAA , the value recorded as its apparent Kd is 95.8

* * *

# Tested on: MS2 coat protein
# TEST_DETAILS: apparent Kd, MS2 coat protein; higher = weaker binding; RNA-MaP array
# CONDITION_LABEL: ligand present: tryptophan; designed as: ON switch for tryptophan
Entries and their measured apparent Kd follow.
The reply should be a number in nM, with the unit left off.

Illustrative cases are given below, each with its answer.
[
  {
    "BIOSEQUENCE": "GAUAACAUGAGGAUCACCCAUGUGGCGUCGCGAGGACCGGUACGGCCGCCACUCGGCAGUUCAACUCGAAUAUAGUGAUCGAAGU",
    "NUMERIC_VALUE": 87.5
  },
  {
    "BIOSEQUENCE": "CGCUACAUGAGGAUCACCCAUGUUACUCCGCGAGGACCGGUACGGCCGCCACUCGGCAGUUUGCGCCGCCGGAGGCACUCUUCAG",
    "NUMERIC_VALUE": 33.1
  }
]

Given item CGCCCAGUUACGGCCGCCACUUCGAUGGCAAAUGUCGAGCCUCCACAUGAGGAUCACCCAUGUCGAAGGACCGGGUACUGCUUGC , the value recorded as its apparent Kd is 110

Given item UCAUACAUGAGGAUCACCCAUGUUCGUGGGCGAGGACCGGUACGGCCGCCACUCGUACUAACGGUUUCUUAAACUUCCUUUCGAG , the value recorded as its apparent Kd is 17.2

Given item UCAUUUUUCACGGCCGCCACUUCAAGGUCCUGAGGCUGGGCAACACAUGAGGAUCACCCAUGUCGAAGGACCGGGUGAAGCUACC , the value recorded as its apparent Kd is 183

Given item UUUUACAUGAGGAUCACCCAUGUGCGGCGCCGAGGACCGGUACGGCCGCCACUCGCAUGGGCAUGCCGCGAUAUCAUUCCUGAAC , the value recorded as its apparent Kd is 103
